Target: T1, human GIP receptor (human, UniProt P48546 22-466)
T1 sequence (looked up): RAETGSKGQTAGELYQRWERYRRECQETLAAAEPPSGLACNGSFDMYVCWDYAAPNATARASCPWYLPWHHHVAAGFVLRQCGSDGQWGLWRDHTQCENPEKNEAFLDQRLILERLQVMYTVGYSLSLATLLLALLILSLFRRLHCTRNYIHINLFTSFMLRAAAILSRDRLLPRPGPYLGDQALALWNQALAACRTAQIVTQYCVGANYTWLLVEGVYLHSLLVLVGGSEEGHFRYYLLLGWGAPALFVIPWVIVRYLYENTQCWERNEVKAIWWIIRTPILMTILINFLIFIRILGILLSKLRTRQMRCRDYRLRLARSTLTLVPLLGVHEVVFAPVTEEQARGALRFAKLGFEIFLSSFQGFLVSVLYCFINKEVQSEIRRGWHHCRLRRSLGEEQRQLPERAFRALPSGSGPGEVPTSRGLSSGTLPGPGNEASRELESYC
Assay: cell-based or functional assay
*1 amine or outer side, *2 acyl side, *3 side chain or, on linkers, in order; H or OH if unused. Where no end group is shown, it is not given here. Side-chain parts run from the residue outwards. [ ]: non-standard residue; d: D form. The star is where a group is joined. C20 diacid = O=C(O)CCCCCCCCCCCCCCCCCCC(=O)*; C18 diacid = O=C(O)CCCCCCCCCCCCCCCCC(=O)*; γGlu = O=C(O)[C@H](CCC(=O)[*:2])N[*:1]; εLys = N[C@@H](CCCCN[*:1])C(=O)[*:2]; dOR = not defined here; Aib = CC(C)(N)C(=O)O
Classes are defined on EC50, CreLuc reporter, 100% hP with ranges low bin (below 8 nM), mid bin (8 nM to below 20 nM), high bin (20 nM or more)

These solved cases illustrate the format of a correct answer.
BINDER: YXEGTFTSDYSIXLEKQAQXEFVRHLINKLTRQRY (Aib at 2, 13, 20; Lys29 epsilon-amino acylated with C20DA-gGlu-gGlu-gGlu-gGlu-gGlu-gGlu-eLys; C-terminal amide) [Compound 39]
CATEGORY: high bin
--
BINDER: YXEGTFTSDYSIXLEKQAQXAFVRHLINKITRQRY (Aib at 2, 13, 20; Lys29 epsilon-amino acylated with C18DA-gGlu-gGlu-gGlu-gGlu-gGlu; C-terminal amide) [Compound 41]
CATEGORY: low bin
--
BINDER: YXEGTFTSDYSIXLENQAQXAFVRHLINKXTRQRY (Aib at 2, 13, 20, 30; Lys29 epsilon-amino acylated with C18DA-gGlu-gGlu-gGlu-gGlu-gGlu-gGlu-eLys; C-terminal amide) [Compound 6]
CATEGORY: low bin
--
BINDER: Y[Aib]EGTFTSDYSI[Aib]LEKQAQ[Aib]EFVRHLINK([γGlu-γGlu-γGlu-γGlu-γGlu-γGlu-C18 diacid])[Aib]TRQRY-NH2 [Compound 56]
CATEGORY: mid bin
--
BINDER: YXEGTFTSDYSIXLDKIAQXAFVRHLINKXTRQRY (Aib at 2, 13, 20, 30; Lys29 epsilon-amino acylated with C18DA-gGlu-gGlu-gGlu-gGlu-gGlu-gGlu-eLys; C-terminal amide) [Compound 33]
CATEGORY: mid bin
--
BINDER: Y[Aib]EGTFTSDYSI[Aib]LDKQAQ[Aib]AFVRHLINK([εLys-γGlu-γGlu-γGlu-γGlu-γGlu-γGlu-γGlu-C20 diacid])[Aib]TRQ[dOR]Y-NH2 (reading uncertain) [Compound 16]
CATEGORY: low bin

Proceed to the following item.
Prompt: Hi there! Could you help me figure out the category for YXEGTFTSDYSIXLEXQAQXAFVRHLINKXTRQRY (Aib at 2, 13, 16, 20, 30; Lys29 epsilon-amino acylated with C18DA-gGlu-gGlu-gGlu-gGlu-gGlu-gGlu-eLys; C-terminal amide) [Compound 5] please?
Response: high bin
